System: cholesterol oxidase
TEST: Inhibition of the enzyme
Format: biochemical, Corynebacterium cholesterolicum
QUANTITY: Inhibition of the enzyme (in words)

Oc1cccc2cccnc12 [8-hydroxyquinoline] | not inhibited
c1cnc2c(c1)ccc1cccnc12 | not inhibited
O=C(O)c1cc[c]([Hg][Cl])cc1 [p-chloromercuribenzoate] | inhibited
O=C(O)CN(CCN(CC(=O)O)CC(=O)O)CC(=O)O | not inhibited
[Ag+] | inhibited

Consider the additional compound presented here.
Data request: Would you mind telling me what Inhibition of the enzyme (in words) value was observed for [Hg+2] ?
Data returned: inhibited

* * *

System: cholesterol oxidase
TEST: Action and substrate specificity: relative activity by hydrogen peroxide formation (peroxidase/4-aminoantipyrine/phenol, absorbance at 500 nm)
Assay type: biochemical, Corynebacterium cholesterolicum
CONDITION_SET: relative amounts of hydrogen peroxide formed, activity to cholesterol taken as 100; initial velocity, 37° C, pH 7.0
QUANTITY: Relative activity (%)
# number then unit; no other words

Solved entries:
CC[C@H](CC[C@@H](C)[C@H]1CC[C@H]2[C@@H]3CC=C4C[C@@H](O)CC[C@]4(C)[C@H]3CC[C@]12C)C(C)C | 54%
C[C@]12CC[C@@H]3c4ccc(O)cc4CC[C@H]3[C@@H]1CC[C@@H]2O | 0%
CC(=O)[C@H]1CC[C@H]2[C@@H]3CC=C4C[C@@H](O)CC[C@]4(C)[C@H]3CC[C@]12C | 416%

Data request: Would you mind telling me what Relative activity (%) value was observed for CC[C@H](/C=C/[C@@H](C)[C@H]1CC[C@H]2[C@@H]3CC=C4C[C@@H](O)CC[C@]4(C)[C@H]3CC[C@]12C)C(C)C ?
Data returned: 17%

Data request: Would you mind telling me what Relative activity (%) value was observed for CC(C)[C@@H](C)/C=C/[C@@H](C)[C@H]1CC[C@H]2C3=CC=C4C[C@@H](O)CC[C@]4(C)[C@H]3CC[C@]12C ?
Data returned: 13%

Data request: Would you mind telling me what Relative activity (%) value was observed for CC(=O)O[C@H]1CC[C@@]2(C)C(=CC[C@H]3[C@@H]4CC[C@H]([C@H](C)CCCC(C)C)[C@@]4(C)CC[C@@H]32)C1 [Cholesterol acetate] ?
Data returned: 0%

Data request: Would you mind telling me what Relative activity (%) value was observed for C[C@H](CCC(=O)O)[C@H]1CC[C@H]2[C@@H]3[C@H](O)C[C@@H]4C[C@H](O)CC[C@]4(C)[C@H]3C[C@H](O)[C@]12C ?
Data returned: 0%

Data request: Would you mind telling me what Relative activity (%) value was observed for CC(C)CCC[C@@H](C)[C@H]1CC[C@H]2[C@@H]3CC[C@H]4C[C@@H](O)CC[C@]4(C)[C@H]3CC[C@]12C ?
Data returned: 43%

Data request: Would you mind telling me what Relative activity (%) value was observed for CC(C)CCC[C@@H](C)[C@H]1CC[C@H]2[C@@H]3CC=C4C[C@@H](O)CC[C@]4(C)[C@H]3CC[C@]12C ?
Data returned: 100%

* * *

Test system: cholesterol oxidase
TEST: Action and substrate specificity: relative activity by hydrogen peroxide formation (peroxidase/4-aminoantipyrine/phenol, absorbance at 500 nm)
Format: biochemical, Corynebacterium cholesterolicum
CONDITION_SET: relative amounts of hydrogen peroxide formed, activity to cholesterol taken as 100; initial velocity, 37° C, pH 7.0
QUANTITY: Relative activity (%)
Numeric only. Scale: %

Solved entries:
C[C@]12CC[C@H](O)CC1=CC[C@@H]1[C@@H]2CC[C@]2(C)C(=O)CC[C@@H]12 [Dehydro-epiandrosterone] | 57
C[C@]12CC[C@H](O)C[C@H]1CC[C@@H]1[C@@H]2CC[C@]2(C)[C@@H](C3=CC(=O)OC3)CC[C@]12O [Digitoxigenin] | 0
C=C1CC[C@H](O)C/C1=C/C=C1\CCC[C@]2(C)[C@@H]([C@H](C)CCCC(C)C)CC[C@@H]12 [Vitamin D3] | 0

Data request: Would you mind telling me what Relative activity (%) value was observed for C[C@]12CC[C@H]3[C@@H](CCC4=CC(=O)CC[C@@]43C)[C@@H]1CC[C@@H]2O [Testosterone] ?
Data returned: 0

Data request: Would you mind telling me what Relative activity (%) value was observed for C[C@@H]1CC[C@@]2(OC1)O[C@H]1C[C@H]3[C@@H]4CC=C5C[C@@H](O)CC[C@]5(C)[C@H]4CC[C@]3(C)[C@H]1[C@@H]2C [Diosgenin] ?
Data returned: 0
